Would you mind telling me the reported IC50 of each entry?
measured-target: neutrophil collagenase (MMP-8) (Homo sapiens)
Construct: enzymatic activity of the catalytic domains of human stromelysin and of neutrophil collagenase
Sequence (P22894 100-262 limits assumed): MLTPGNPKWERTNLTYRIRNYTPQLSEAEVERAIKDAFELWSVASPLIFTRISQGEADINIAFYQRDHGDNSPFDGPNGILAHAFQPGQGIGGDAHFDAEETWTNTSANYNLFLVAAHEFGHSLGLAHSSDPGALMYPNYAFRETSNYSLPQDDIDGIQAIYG
protocol-description: Enzymatic activity of the catalytic domain of neutrophil collagenase (fluorogenic substrate)
experimental-context: pH=6.5, 15 min preincubation, fluorescence 328 nm (ex)/393 nm (em), read-out: Neutr. collagenase IC50
Numbers only, in nM.

O=C(O)C(CCc1c[nH]c2ccccc12)NS(=O)(=O)c1ccc(-c2ccc(Cl)cc2)cc1 (racemic) [Example 105] :: 10
CSCC[C@@H](NS(=O)(=O)c1ccc(-n2nccn2)cc1)C(=O)O [Example 67] :: 200
O=C(O)[C@@H](Cc1cccs1)NS(=O)(=O)c1ccc(-c2ccc(Cl)cc2)cc1 [Example 27] :: 10
O=C(O)CC[C@@H](NS(=O)(=O)c1ccc(-c2ccccc2)cc1)C(=O)O [Example 61] :: 20

Switching to the query record.
# get_value(readout='IC50', item= C=CC(NS(=O)(=O)c1ccc(-c2ccc(Cl)cc2)cc1)C(=O)O (racemic) [Example 6] ) 20
